# Test system: MCF7
# assay method text: Antiproliferative activity against human MCF7 cells assessed as inhibition of cell proliferation incubated for 72 hrs by MTT assay
# Type: functional, cell-based
# condition context: MCF7, 72 h
Entries and their pEC50 values follow.
// scale note: pEC50 = -log10(conc_M); give the bare number

Cc1cc(O)cc(O)c1C[C@@H]1[C@@]2(C)CCCC(C)(C)[C@@H]2CC[C@@]1(C)O | 4.95

Given `CC1(C)CCC[C@]2(C)[C@@H](Cc3ccc(O)cc3O)[C@](C)(O)CC[C@@H]12` , state its recorded pEC50.
4.92

Given `CC1(C)CCC[C@]2(C)[C@@H](Cc3c(O)cccc3O)[C@](C)(O)CC[C@@H]12` , state its recorded pEC50.
4.79

Given `CC1(C)CCC[C@]2(C)[C@@H](Cc3cc(O)ccc3O)[C@](C)(O)CC[C@@H]12` , state its recorded pEC50.
4.30

Given Cc1cc(O)c(C[C@@H]2[C@@]3(C)CCCC(C)(C)[C@@H]3CC[C@@]2(C)O)c(O)c1 [ALBACONOL] , state its recorded pEC50.
5.00

Given `CC1(C)CCC[C@]2(C)[C@@H](Cc3cc(C(=O)O)ccc3O)[C@](C)(O)CC[C@@H]12` , state its recorded pEC50.
4.30

* * *

# Test system: Phytophthora capsici
# assay method text: Antifungal activity against Phytophthora capsici at 150 uM
# Format: functional
Entries and their inhibition at 150 µM values follow.
Enter your answer as a number in %; do not include the unit.

Given `O=C(Nc1ccccc1-c1ccc(Cl)cc1)c1cccnc1Cl` , state its recorded inhibition at 150 µM.
23

Given `CC1(C)CCC[C@]2(C)[C@@H](Cc3cc(C(=O)O)ccc3O)[C@](C)(O)CC[C@@H]12` , state its recorded inhibition at 150 µM.
62

Given `Cc1cc(O)cc(O)c1C[C@@H]1[C@@]2(C)CCCC(C)(C)[C@@H]2CC[C@@]1(C)O` , state its recorded inhibition at 150 µM.
29

Given `Cc1cc(O)c(C[C@@H]2[C@@]3(C)CCCC(C)(C)[C@@H]3CC[C@@]2(C)O)c(O)c1` , state its recorded inhibition at 150 µM.
30

* * *

Entries and their inhibition at 150 µM values follow.
# Test system: Fusarium graminearum
# assay method text: Antifungal activity against Fusarium graminearum at 150 uM
# Format: functional
Enter your answer as a number in %; do not include the unit.

Take a look at these entries with their results.
Cc1ccc(O)c(C[C@@H]2[C@@]3(C)CCCC(C)(C)[C@@H]3CC[C@@]2(C)O)c1 | -4
CC1(C)CCC[C@]2(C)[C@H]3Cc4ccc(O)cc4O[C@]3(C)CC[C@@H]12 | 49
COc1cc2c(cc1OC)O[C@]1(C)CC[C@H]3C(C)(C)CCC[C@]3(C)[C@H]1C2 | 29

Next item in the queue.
Given `Cc1cc(O)cc(O)c1C[C@@H]1[C@@]2(C)CCCC(C)(C)[C@@H]2CC[C@@]1(C)O` , state its recorded inhibition at 150 µM.
56

* * *

Entries and their inhibition at 150 µM values follow.
# Tested on: Fusarium graminearum
# assay method text: Antifungal activity against Fusarium graminearum at 150 uM
# Type: functional

CC1(C)CCC[C@@]2(C)C1CC[C@@]1(C)Oc3ccc(-c4ccc(F)cc4)cc3C[C@@H]12 (stereo partly drawn) | < 60%
CC1(C)CCC[C@]2(C)C3=CC4=CC(=O)C(=O)C=C4O[C@]3(C)CC[C@@H]12 | 44%
CC1(C)CCC[C@]2(C)[C@H]3Cc4cc(OC(=O)c5ccc(F)cc5)ccc4O[C@]3(C)CC[C@@H]12 | < 60%
C=CCOc1ccc2c(c1)C[C@@H]1[C@@]3(C)CCCC(C)(C)[C@@H]3CC[C@@]1(C)O2 | < 60%
CC1(C)CCC[C@]2(C)[C@@H](Cc3cccc(O)c3O)[C@](C)(O)CC[C@@H]12 | 36%

Given `CC1(C)CCC[C@]2(C)[C@H]3Cc4cc(OCc5ccccc5)ccc4O[C@]3(C)CC[C@@H]12` , state its recorded inhibition at 150 µM.
< 60%

Given `CC1(C)CCC[C@]2(C)[C@H]3Cc4cccc(O)c4O[C@]3(C)CC[C@@H]12` , state its recorded inhibition at 150 µM.
31%

Given `CC1(C)CCC[C@]2(C)[C@H]3Cc4cc(Oc5ccccn5)ccc4O[C@]3(C)CC[C@@H]12` , state its recorded inhibition at 150 µM.
< 60%

* * *

# System: Fusarium graminearum
# assay method text: Antifungal activity against Fusarium graminearum at 150 uM
# Format: functional
metric name: inhibition at 150 µM

Take a look at these entries with their results.
CC1(C)CCC[C@]2(C)[C@H]3Cc4cc(OC(=O)c5cccnc5Cl)ccc4O[C@]3(C)CC[C@@H]12 | < 60%
CC(C)=CCOc1ccc2c(c1)C[C@@H]1[C@@]3(C)CCCC(C)(C)[C@@H]3CC[C@@]1(C)O2 | < 60%
CC1(C)CCC[C@]2(C)[C@@H](Cc3cc(C(=O)O)ccc3O)[C@](C)(O)CC[C@@H]12 | 56%
CC1(C)CCC[C@]2(C)[C@@H](Cc3ccc(O)cc3O)[C@](C)(O)CC[C@@H]12 | 41%
CC1(C)CCC[C@]2(C)[C@H]3Cc4cc(O)cc(O)c4[C@]3(C)CC[C@@H]12 | 60%
CC1(C)CCC[C@]2(C)[C@H]3Cc4cc(OC(=O)c5ccccc5)ccc4O[C@]3(C)CC[C@@H]12 | < 60%
CCCOc1ccc2c(c1)C[C@@H]1[C@@]3(C)CCCC(C)(C)[C@@H]3CC[C@@]1(C)O2 | < 60%
CC1(C)CCC[C@]2(C)[C@H]3Cc4c(O)cccc4O[C@]3(C)CC[C@@H]12 | 43%
CC1(C)CCC[C@]2(C)[C@H]3Cc4cc(OC(=O)c5cccnc5)ccc4O[C@]3(C)CC[C@@H]12 | < 60%
CC1(C)CCC[C@]2(C)[C@H]3Cc4cc(Oc5ccccc5)ccc4O[C@]3(C)CC[C@@H]12 | < 60%

Report inhibition at 150 µM for `CC(=O)Oc1ccc2c(c1)C[C@@H]1[C@@]3(C)CCCC(C)(C)[C@@H]3CC[C@@]1(C)O2` tested on Fusarium graminearum.
< 60%

Report inhibition at 150 µM for CC1(C)CCC[C@@]2(C)C1CC[C@@]1(C)Oc3ccc(-c4cnc5ccccc5c4)cc3C[C@@H]12 (stereo partly drawn) tested on Fusarium graminearum.
< 60%

Report inhibition at 150 µM for `O=C(Nc1ccccc1-c1ccc(Cl)cc1)c1cccnc1Cl` tested on Fusarium graminearum.
27%
